Each entry below carries its reported Ki.
study-system: Furin (Homo sapiens, UniProt P09958)
Sequence (P09958 whole entry): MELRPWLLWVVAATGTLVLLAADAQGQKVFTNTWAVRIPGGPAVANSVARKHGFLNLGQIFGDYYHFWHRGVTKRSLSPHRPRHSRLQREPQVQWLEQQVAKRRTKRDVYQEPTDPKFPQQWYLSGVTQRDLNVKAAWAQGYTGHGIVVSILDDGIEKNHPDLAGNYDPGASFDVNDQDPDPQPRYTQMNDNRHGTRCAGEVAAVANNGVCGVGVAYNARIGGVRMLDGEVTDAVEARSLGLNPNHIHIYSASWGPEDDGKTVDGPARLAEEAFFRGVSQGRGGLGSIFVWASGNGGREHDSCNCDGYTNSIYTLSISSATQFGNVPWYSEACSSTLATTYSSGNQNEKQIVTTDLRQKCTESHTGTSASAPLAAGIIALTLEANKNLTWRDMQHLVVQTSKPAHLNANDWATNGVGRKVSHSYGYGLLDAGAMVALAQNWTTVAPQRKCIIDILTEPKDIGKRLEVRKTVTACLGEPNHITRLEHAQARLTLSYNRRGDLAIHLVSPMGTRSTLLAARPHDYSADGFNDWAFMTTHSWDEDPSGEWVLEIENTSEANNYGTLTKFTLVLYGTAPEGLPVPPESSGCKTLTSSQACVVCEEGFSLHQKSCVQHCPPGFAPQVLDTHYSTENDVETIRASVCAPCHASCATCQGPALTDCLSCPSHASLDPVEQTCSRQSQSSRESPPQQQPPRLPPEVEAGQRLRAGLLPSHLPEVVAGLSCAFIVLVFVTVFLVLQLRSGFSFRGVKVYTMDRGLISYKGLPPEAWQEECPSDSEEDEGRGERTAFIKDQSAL
assay-overview: Inhibition of recombinant soluble human furin using pyroGlu-Arg-Thr-Lys-Arg-methyl-coumaryl-7-amide as substrate measured after 1 hr
The reply should contain only the number, in nM.

Recorded Ki for CC(=O)N[C@@H](CCCNC(=N)N)C(=O)N[C@@H](C)C(=O)N[C@@H](CCCNC(=N)N)C(=O)N[C@@H](CO)C(=O)N[C@@H](CCCNC(=N)N)C(=O)N[C@@H](CCCCN)C(=O)N[C@@H](CCCCN)C(=O)N[C@@H](CCCNC(=N)N)C(=O)N[C@H](C(N)=O)[C@@H](C)O on Furin (Homo sapiens, UniProt P09958) was 9

====

study-system: Furin (Homo sapiens, UniProt P09958)
assay-overview: Inhibition of recombinant soluble human furin using pyroGlu-Arg-Thr-Lys-Arg-methyl-coumaryl-7-amide as substrate measured after 1 hr
Listed next: entries and their corresponding pKi.
// field semantics: pKi = negative decimal log of concentration (mol/L)

{"columns": ["chemical-structure", "value-observed"],
 "data": [
  ["CC[C@H](C)[C@H](NC(=O)[C@H](C)NC(=O)[C@H](CCCNC(=N)N)NC(C)=O)C(=O)N[C@@H](CCCNC(=N)N)C(=O)N[C@@H](CCCNC(=N)N)C(=O)N[C@@H](CCCCN)C(=O)N[C@@H](CCCCN)C(=O)N[C@@H](CCCNC(=N)N)C(=O)N[C@H](C(N)=O)[C@@H](C)O", 7.59]
]}

Read the next record carefully.
pKi reported for this compound CC(=O)N1CCC[C@H]1C(=O)N[C@@H](C)C(=O)N[C@@H](CCCNC(=N)N)C(=O)N[C@@H](CCCNC(=N)N)C(=O)N[C@@H](CCCNC(=N)N)C(=O)N[C@@H](CCCCN)C(=O)N[C@@H](CCCCN)C(=O)N[C@@H](CCCNC(=N)N)C(=O)N[C@H](C(N)=O)[C@@H](C)O : 8.00

====

study-system: Furin (Homo sapiens)
assay-overview: Inhibition of recombinant soluble human furin using pyroGlu-Arg-Thr-Lys-Arg-methyl-coumaryl-7-amide as substrate measured after 1 hr
Catalogue of pKi values
Conceptually, pKi converts a concentration in mol/L into minus its log10.

{"columns": ["chemical-structure", "pKi"],
 "data": [
  ["CC[C@H](NC(=O)[C@H](CCCNC(=N)N)NC(=O)[C@H](C)NC(=O)[C@@H](CO)NC(C)=O)C(=O)N[C@@H](CCCNC(=N)N)C(=O)N[C@@H](CCCCN)C(=O)N[C@@H](CCCCN)C(=O)N[C@@H](CCCNC(=N)N)C(=O)N[C@H](C(N)=O)[C@@H](C)O", 7.82]
]}

Form field pKi, entry CC(=O)N[C@@H](CCCNC(=N)N)C(=O)N[C@@H](C)C(=O)N1CCC[C@H]1C(=O)N[C@@H](CCCNC(=N)N)C(=O)N[C@@H](CCCNC(=N)N)C(=O)N[C@@H](CCCCN)C(=O)N[C@@H](CCCCN)C(=O)N[C@@H](CCCNC(=N)N)C(=O)N[C@H](C(N)=O)[C@@H](C)O : 7.68

pKi reading for CSCC[C@H](NC(C)=O)C(=O)N[C@@H](C)C(=O)N[C@@H](CCCNC(=N)N)C(=O)N[C@@H](CCCNC(=N)N)C(=O)N[C@@H](CCCNC(=N)N)C(=O)N[C@@H](CCCCN)C(=O)N[C@@H](CCCCN)C(=O)N[C@@H](CCCNC(=N)N)C(=O)N[C@H](C(N)=O)[C@@H](C)O : 7.92

// CC(=O)N[C@@H](CCCNC(=N)N)C(=O)N[C@@H](C)C(=O)N[C@@H](CCCNC(=N)N)C(=O)N[C@@H](CCC(=O)O)C(=O)N[C@@H](CCCNC(=N)N)C(=O)N[C@@H](CCCCN)C(=O)N[C@@H](CCCCN)C(=O)N[C@@H](CCCNC(=N)N)C(=O)N[C@H](C(N)=O)[C@@H](C)O : pKi value = 7.26
